Below, each of the variants is paired with its reported enrichment ratio value.
B1: PhoQ; a variant is named by its letters at X, in order, P23837 (parent)
chain: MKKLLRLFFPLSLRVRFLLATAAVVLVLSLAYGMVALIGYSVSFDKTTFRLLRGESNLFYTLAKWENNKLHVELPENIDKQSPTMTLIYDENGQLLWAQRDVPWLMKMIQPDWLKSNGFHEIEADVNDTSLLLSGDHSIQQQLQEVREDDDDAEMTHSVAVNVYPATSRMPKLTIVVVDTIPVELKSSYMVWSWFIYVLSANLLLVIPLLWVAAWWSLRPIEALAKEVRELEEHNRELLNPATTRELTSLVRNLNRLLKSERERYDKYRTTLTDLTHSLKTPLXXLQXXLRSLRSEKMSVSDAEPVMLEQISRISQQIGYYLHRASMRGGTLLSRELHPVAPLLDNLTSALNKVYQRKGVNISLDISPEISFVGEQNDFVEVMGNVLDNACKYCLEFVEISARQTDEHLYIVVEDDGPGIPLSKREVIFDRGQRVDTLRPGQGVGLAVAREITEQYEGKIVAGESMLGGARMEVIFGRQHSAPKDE

- Variants of: B1
- Procedure details: enrichment ratio after two sorts for PhoP signalling (ratio (wild type AVST 3.29)); higher = more functional
- Condition details: with PhoP (E. coli)
The full ranking holds about 140,000 sequences; the median of “enrichment ratio after two sorts for PhoP signalling” is about 0, and the highest 2% start at about 11. Many of the other results were omitted from the sample, so the highest values are more common in it than they were.
Answer field: number only, no words.

Example entries begin here.
IICF | 0.792
TMMH | 5.83
ASIE | 0.421
TMCH | 15.9

# enrichment ratio lookup, item `ASIV` 11.4

Let us now turn to `MNAV` 2.67

Let us now turn to `SNAV` 12.6

Let us now turn to `ASCQ` 4.02

Let us now turn to `SCTL` 14.2

Let us now turn to `ASQV` 1.45

Let us now turn to `ANCM` 6.06

Let us now turn to `SLTL` 15.2

Let us now turn to `ASIS` 7.49

Let us now turn to `ATVW` 3.56

Let us now turn to `TMCE` 21.2

Let us now turn to `WLTL` 0.379
